Source: paper PMC3552960

Molecular target: T1, CCR5 Thr^2.56(82)Pro/Arg^6.32(225)Gln double-mutant receptor (human, UniProt P51681 1-352, Thr^2.56(82)Pro | Arg^6.32(225)Gln)
T1 construct: also called T^2.56(82)P/R^6.32(225)Q; T^2.69(82)P/R^6.32(225)Q; source: HOS-CD4-Luc, transiently transfected, on cells (fusion)
T1 sequence: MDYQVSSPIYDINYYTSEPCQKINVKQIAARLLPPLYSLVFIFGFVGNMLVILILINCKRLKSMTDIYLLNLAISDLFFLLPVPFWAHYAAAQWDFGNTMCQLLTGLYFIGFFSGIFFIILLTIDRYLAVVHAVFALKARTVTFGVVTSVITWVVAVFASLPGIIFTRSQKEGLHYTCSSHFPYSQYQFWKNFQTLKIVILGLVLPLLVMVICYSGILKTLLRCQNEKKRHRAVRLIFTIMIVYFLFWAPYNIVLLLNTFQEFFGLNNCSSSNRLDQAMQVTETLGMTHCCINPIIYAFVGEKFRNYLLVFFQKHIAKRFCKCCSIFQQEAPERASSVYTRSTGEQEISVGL
Test: radioligand binding
Conditions: one partner purified
Metric: IC50 (nM)
Only the number, expressed in nM, is required.

Query string: Look up IC50 for this binder: macrophage inflammatory protein 1β (MIP-1β, CCL4), recombinant human, unlabelled (ligand, also called unlabelled MIP-1β; source: bought: Peprotec (Rocky Hill, NJ)) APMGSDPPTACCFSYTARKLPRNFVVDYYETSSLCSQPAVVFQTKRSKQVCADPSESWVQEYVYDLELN
Result string: 30.6
